Value source: ChEMBL document CHEMBL1136684

Biological target: Beta-2 adrenergic receptor (Homo sapiens, UniProt P07550)
Sequence (P07550 whole entry): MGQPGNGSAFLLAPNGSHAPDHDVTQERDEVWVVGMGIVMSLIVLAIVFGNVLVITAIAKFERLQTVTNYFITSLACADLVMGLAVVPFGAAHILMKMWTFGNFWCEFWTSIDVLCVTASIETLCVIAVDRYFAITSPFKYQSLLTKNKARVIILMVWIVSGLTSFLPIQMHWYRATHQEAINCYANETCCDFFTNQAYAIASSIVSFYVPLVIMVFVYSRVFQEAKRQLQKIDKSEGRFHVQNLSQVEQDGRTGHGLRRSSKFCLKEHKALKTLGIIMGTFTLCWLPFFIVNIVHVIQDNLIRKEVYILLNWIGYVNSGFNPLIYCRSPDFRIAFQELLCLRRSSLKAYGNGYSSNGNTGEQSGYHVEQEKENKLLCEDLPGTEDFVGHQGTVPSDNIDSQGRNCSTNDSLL
Test: Agonistic activity against human Beta-2 adrenergic receptor by measuring cAMP accumulation in CHO cells expressing beta3-AR
Define the label as MET when EC50 is strictly less than 20 nM and as NOT MET in all remaining cases.

Field: example entries. Status: answers known.
[
  {
    "COMPOUND": "C[C@H](Cc1c[nH]c2ccccc12)NC[C@@H](O)c1cccc(Cl)c1",
    "ANSWER_LABEL": "NOT MET"
  },
  {
    "COMPOUND": "CC(Cc1c[nH]c2ccccc12)NCC(O)c1cccc(Cl)c1 (mixture of isomers)",
    "ANSWER_LABEL": "NOT MET"
  },
  {
    "COMPOUND": "COc1cccc2c(C[C@@H](C)NC[C@H](O)c3cccc(Cl)c3)c[nH]c12",
    "ANSWER_LABEL": "MET"
  },
  {
    "COMPOUND": "C[C@H](Cc1c[nH]c2ccccc12)NC[C@H](O)c1cccc(Cl)c1",
    "ANSWER_LABEL": "NOT MET"
  }
]

Would you kindly look at the next entry?
input: Please let me know if C[C@H](Cc1c[nH]c2c(OCC(=O)O)cccc12)NC[C@H](O)c1cccc(Cl)c1 shows EC50 below 20 nM.
output: MET
